Test system: CCRF-CEM leukemia
Assay: NCI tumour cell line growth inhibition, 48 h
assay-metric: TGI (µM)
Give the value in µM but do not write µM after it.

molecule=OCCOCCO[P+]1(OCCOCCO)n2c3ccc2C(c2ccccc2)=C2C=CC(=N2)C(c2ccccc2)=c2ccc(n21)=C(c1ccccc1)C1=NC(=C3c2ccccc2)C=C1 assay_metric=TGI recorded_number=1.14
molecule=O=C(c1cccs1)c1c(C(F)(F)F)n([O-])c2cc(F)c(F)cc2[n+]1=O assay_metric=TGI recorded_number=0.729

Now look at this one.
Request: So what does the record say about TGI for CCC12C=CCN3CC[C@]4(C(=C(C(=O)OC)[C@@H]1Nc1ccn(C5OC(COC(C)=O)C(OC(C)=O)C5OC(C)=O)c(=O)n1)Nc1ccccc14)C32 (stereo not given in full) ?
Response: 13.2

---

Below, each entry is listed with its recorded GI50.
Tested on: MCF7 breast
Assay: NCI tumour cell line growth inhibition, 48 h

compound=O=C(N/N=C/c1cc2ccccc2c2ccccc12)c1cc(O)c(O)c(O)c1 result="3680 nM"
compound=Cc1c2c(cc[n+]1Cc1ccccc1)c1ccc(OCC3CCCCC3)cc1n2CC1CCCCC1 result="306 nM"
compound=COc1cc2cc(C(=O)O)[nH]c2cc1OCc1ccccc1 result="93200 nM"
compound=CCOC(=O)c1cc(C(=O)c2cc(OC)cc(OC)c2)n2ncccc12 result="1310 nM"

Request: So what does the record say about GI50 for "O=C(Nc1ccc(-n2cc(-c3ccncc3)c(-c3ccc(Cl)c(O)c3)n2)cc1)c1cc(Cl)cc(Cl)c1" ?
Response: 6210 nM

Request: So what does the record say about GI50 for CN(C)CCCC1(c2ccc(F)cc2)OCc2cc(-c3ccc4cc[nH]c4c3)ccc21 (stereo not given) ?
Response: 1650 nM

Request: So what does the record say about GI50 for "O=S(=O)(Nc1ccc(Cl)c(C(F)(F)F)c1)c1ccc(-c2cnc(C3CC3)o2)cc1" ?
Response: 132 nM

Request: So what does the record say about GI50 for O=C1Nc2ccccc2SC1C1SC(=S)N(Cc2ccccc2)C1=O (stereo not given) ?
Response: 1210 nM

Request: So what does the record say about GI50 for "NC(N)=NC(N)=NCCc1ccccc1" ?
Response: > 100000 nM

Request: So what does the record say about GI50 for NC1=C(c2nc(-c3cc4ccccc4oc3=O)cs2)C(c2ccco2)c2c(c3ccccc3oc2=O)O1 (stereo not given) ?
Response: > 150 µg/mL

Request: So what does the record say about GI50 for "Nc1ccc(-c2ccc(-c3nc4ccccc4[nH]3)cc2)cc1" ?
Response: 765 nM

Request: So what does the record say about GI50 for "CCOC(=O)C(=Cc1ccc(Br)cc1)C(=O)OCC" ?
Response: 1660 nM

Request: So what does the record say about GI50 for O=c1cccc(C#CCCCCOC2CCCO2)o1 (stereo not given) ?
Response: 8730 nM

Request: So what does the record say about GI50 for "N#Cc1ccc(-n2cnc(NC(=O)[C@H]3CCN(C#N)C3)c2)cc1" ?
Response: < 37.8 nM

Request: So what does the record say about GI50 for "CS(=O)(=O)c1ccc(C(F)(F)F)cc1NC(=O)Nc1cnc(Oc2ccc(-c3cc(Cl)cnc3N)cc2)nc1" ?
Response: 2180 nM

---

Tested on: NCI-H522 lung
Test: NCI tumour cell line growth inhibition, 48 h; in the data active means GI50 below about 0.43 µM; inactive means the rest
Allowed answers: active, inactive

Solved entries (count: 3):
compound=O=C1C(Nc2ccccn2)=C(I)C(=O)c2ncccc21 category=inactive
compound="CN(C)CCCC1(c2ccc(F)cc2)OCc2cc(-c3ccc4cc[nH]c4c3)ccc21 (stereo not given)" category=inactive
compound="N#CC1=C(N)Oc2c(sc3c(F)cccc23)C1c1ccc([N+](=O)[O-])cc1 (stereo not given)" category=active

Request: # lookup: test call for "O=C1c2cccc3c(N4CCN(c5ccc6c7c(cccc57)C(=O)N(CCN5CCNCC5)C6=O)CC4)ccc(c23)C(=O)N1CCN1CCNCC1"
Response: inactive

Request: # lookup: test call for "CCOC(=O)C(=Cc1ccc(Br)cc1)C(=O)OCC"
Response: inactive

Request: # lookup: test call for "N#Cc1cccc(Nc2nccc(-c3cnn4ncccc34)n2)c1"
Response: active

Request: # lookup: test call for "O=C(Oc1ccc([N+](=O)[O-])cc1)N1CCC(C(O)(c2ccc3c(c2)OCO3)c2ccc3c(c2)OCO3)CC1"
Response: inactive

---

System: KM12 colon
Assay: NCI tumour cell line growth inhibition, 48 h
assay-metric: TGI

molecule=CCOC(=O)Cn1nc2ccc(Nc3nc4ccccc4nc3C(=O)OCC)cc2n1 target_system="KM12 colon" assay_metric=TGI result="> 100 µM"
molecule=CS(=O)(=O)c1ccc(C(F)(F)F)cc1NC(=O)Nc1cnc(Oc2ccc(-c3cc(Cl)cnc3N)cc2)nc1 target_system="KM12 colon" assay_metric=TGI result="3.6 µM"
molecule=C[C@]12CC[C@@H]3c4ccc(O)cc4CC[C@H]3[C@@H]1CC[C@@H]2NS(=O)(=O)c1cccc(Br)c1 target_system="KM12 colon" assay_metric=TGI result="6.76 µM"
molecule="C=CC1=C(C)C2=NC1=CC1=NC(=C(CC)/C1=C/O)C=C1C=C3C(=O)C(C(=O)OC)C(=C4NC(=C2)C(C)C4CCC(=O)OC/C=C(\\C)CCCC(C)CCCC(C)CCCC(C)C)C3=N1 (stereo not given) (tested in a mixture with another compound)" target_system="KM12 colon" assay_metric=TGI result="> 100 µM"

Request: So what does the record say about TGI for Cc1ccc2c(c1)NC(=O)C(N=[N+]=[N-])(c1ccccc1)C2=O (stereo not given) ?
Response: 40 µM

---

Test system: HCC-2998 colon
Experiment: NCI tumour cell line growth inhibition, 48 h; in the data active means GI50 below about 0.43 µM; inactive means the rest
Allowed answers: active, inactive

molecule=O=C1c2cccc3c(N4CCN(c5ccc6c7c(cccc57)C(=O)N(CCN5CCNCC5)C6=O)CC4)ccc(c23)C(=O)N1CCN1CCNCC1 category=inactive
molecule=O=[N+]([O-])c1ccc(N(CCO)CCO)c2c1no[n+]2[O-] category=inactive
molecule=O=C(N/N=C/c1cc2ccccc2c2ccccc12)c1cc(O)c(O)c(O)c1 category=inactive
molecule=Nc1cc(C(F)F)c(-c2nc(N3[C@@H]4CC[C@H]3COC4)nc(N3[C@@H]4CC[C@H]3COC4)n2)cn1 category=inactive
molecule=Cc1ccnc2c1NC(=O)c1cccnc1N2C1CC1 category=inactive
molecule=N#Cc1ccc(-n2cnc(NC(=O)[C@H]3CCN(C#N)C3)c2)cc1 category=inactive
molecule=O=C(c1cccs1)c1c(C(F)(F)F)n([O-])c2cc(F)c(F)cc2[n+]1=O category=inactive
molecule="Cc1cc(N2CCN(C)CC2)nc(NC2CCCC(Nc3ccnc4cc(Cl)ccc34)C2)n1 (stereo unspecified)" category=inactive
molecule=CCN(C)S(=O)(=O)Nc1cccc(Nc2ncnc3cc(NC(=O)CCl)ccc23)c1Cl category=inactive
molecule=COc1cc2cc(C(=O)O)[nH]c2cc1OCc1ccccc1 category=inactive

Next, consider the following molecule.
Request: # lookup: test call for "Cc1cc(NC(=O)CCc2ccc(N3C(N)=NC(N)=NC3(C)C)cc2)ccc1S(=O)(=O)F"
Response: inactive

---

Test system: SN12C renal
Assay: NCI tumour cell line growth inhibition, 48 h
assay-metric: TGI

compound=COc1ccc(-c2nc3ccc(C)cc3o2)c(OC)c1 result="> 82.1 µM"
compound=O=[N+]([O-])c1ccc2nc(N/N=C/c3ccc(O)cc3)sc2c1 result="> 100 µM"
compound=Cc1ccc(S(=O)(=O)n2ccn3c(=O)cc(C)nc23)cc1 result="> 10 µM"
compound="C=CCCCC1(C)CCCCNC1=O (stereo unspecified)" result="> 10 µM"
compound=O=C1c2c(Br)sc(Br)c2[C@H]2NC(=S)O[C@@H]12 result="32.7 µM"

Now look at this one.
Request: So what does the record say about TGI for "O=C1OC(c2ccc([N+](=O)[O-])cc2)=N/C1=C\c1ccc(O)cc1" ?
Response: > 100 µM

---

Test system: SNB-75 CNS
Assay: NCI tumour cell line growth inhibition, 48 h; in the data active = GI50 below about 0.43 µM; inactive = the rest
Allowed answers: active, inactive

Solved entries (count: 5):
compound=Cc1cc(NC(=O)CCc2ccc(N3C(N)=NC(N)=NC3(C)C)cc2)ccc1S(=O)(=O)F category=inactive
compound=COc1ccc(OC)c(-c2nc3sccn3c2/C=C2/C(=O)Nc3ccccc32)c1 category=inactive
compound=CCOC(=O)c1cc(C(=O)c2cc(OC)cc(OC)c2)n2ncccc12 category=active
compound=C[C@]12CC[C@H]3[C@@H](C[C@@H]4SC(Nc5cccc(F)c5)=N[C@@]45CC(=O)CC[C@]35C)[C@@H]1CCC2=O category=inactive
compound=O=C(NCCNCCO)c1ccc2oc3cc4ccccc4c(=O)n3c2c1 category=inactive

Request: # lookup: test call for "N#Cc1cccc(Nc2nccc(-c3cnn4ncccc34)n2)c1"
Response: active

Request: # lookup: test call for "CS(=O)(=O)c1ccc(C(F)(F)F)cc1NC(=O)Nc1cnc(Oc2ccc(-c3cc(Cl)cnc3N)cc2)nc1"
Response: inactive

Request: # lookup: test call for "Cc1ccnc2c1NC(=O)c1cccnc1N2C1CC1"
Response: inactive

Request: # lookup: test call for N#CC1=C(N)Oc2c(sc3c(F)cccc23)C1c1ccc([N+](=O)[O-])cc1 (centres undefined)
Response: active

Request: # lookup: test call for "Cc1ccc(NC2=C(Cl)C(=O)c3nc(C)ccc3C2=O)cc1"
Response: inactive

Source of measurements: PubChem BioAssay (NCI)
